Molecular target: N370S glucocerebrosidase from human spleen homogenate (Homo sapiens, UniProt P04062, N409S)
Construct: N370S glucocerebrosidase from human spleen homogenate as the enzyme preparation; from tissue; host or cells: human spleen homogenate
Sequence (P04062 40-536 N409S): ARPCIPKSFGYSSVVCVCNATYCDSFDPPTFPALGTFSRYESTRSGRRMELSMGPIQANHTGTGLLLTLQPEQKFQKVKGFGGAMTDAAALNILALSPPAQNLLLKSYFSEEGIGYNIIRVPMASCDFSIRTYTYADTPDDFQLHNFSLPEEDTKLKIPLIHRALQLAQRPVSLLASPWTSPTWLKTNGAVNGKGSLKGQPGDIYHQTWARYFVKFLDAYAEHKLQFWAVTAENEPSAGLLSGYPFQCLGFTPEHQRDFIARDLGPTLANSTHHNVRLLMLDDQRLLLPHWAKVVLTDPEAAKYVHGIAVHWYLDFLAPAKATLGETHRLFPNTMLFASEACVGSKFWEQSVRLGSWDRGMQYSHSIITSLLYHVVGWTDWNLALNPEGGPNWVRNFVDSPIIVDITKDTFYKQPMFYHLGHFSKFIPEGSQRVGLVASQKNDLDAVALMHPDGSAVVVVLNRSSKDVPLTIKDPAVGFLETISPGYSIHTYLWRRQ
Experiment: qHTS fluorogenic enzyme assay for activators of N370S glucocerebrosidase (4-methylumbelliferyl-beta-D-glucopyranoside substrate)
Format: biochemical
Details: pH 5.0, 37° C. 40 min
Rule for this label: T means AC50 is less than 7 µM; F means AC50 is at least 7 µM.

- molecule: "Cc1ccc(NC(=O)c2cnn3c(C)cc(C)nc23)c(C)c1 [NCGC00188778-01]"
  group-label: "F"
- molecule: "C#Cc1ccc(NC(=O)c2cnn3c(C)cc(C)nc23)cc1 [NCGC00188758-01]"
  group-label: "T"
- molecule: "C=C1C=C(C(F)F)n2ncc(C(=O)NCCc3ccccc3OC)c2N1 [NCGC00182147-01]"
  group-label: "F"
- molecule: "COc1ccc(NC(=O)c2cnn3c(C)cc(C)nc23)c(OC)c1 [NCGC00188781-01]"
  group-label: "F"
- molecule: "C=C1C=C(C(F)F)n2ncc(C(=O)NC(C)CC)c2N1 (centres unmarked) [NCGC00182145-01]"
  group-label: "F"
- molecule: "Cc1cc(C)n2ncc(C(=O)Nc3cnc4ccccc4c3)c2n1 [NCGC00188762-01]"
  group-label: "F"
- molecule: "CCc1ccc(NC(=O)c2cnn3c(C)cc(-c4ccccc4)nc23)cc1 [NCGC00229714-01]"
  group-label: "F"
- molecule: "Cc1ccc(NC(=O)c2cnn3c(C)cc(C)nc23)c(F)c1 [NCGC00188779-01]"
  group-label: "F"
- molecule: "O=C(Nc1ccc2c(c1)CCC2)c1cnn2c1NC(=C1CC1)C=C2C(F)F [NCGC00182174-01]"
  group-label: "T"
- molecule: "Cc1cc(C)n2ncc(C(=O)Nc3cccc(C(F)(F)F)c3)c2n1 [NCGC00188786-01]"
  group-label: "F"
- molecule: "C=C1C=C(C)n2ncc(C(=O)Nc3ccccc3C(=O)OC)c2N1 [NCGC00182165-01]"
  group-label: "F"
- molecule: "Cc1cc(-c2ccccc2)n2ncc(C(=O)NC3CCC(C(C)(C)C)CC3)c2n1 (centres unmarked) [NCGC0229711-01]"
  group-label: "F"
- molecule: "Cc1cc(-c2ccccc2)nc2c(C(=O)NC3CCC(C(C)(C)C)CC3)cnn12 (centres unmarked) [NCGC00229708-01]"
  group-label: "T"
- molecule: "CCc1ccc(NC(=O)c2cnn3c(C)cc(C)nc23)cc1 [NCGC00187970-01]"
  group-label: "T"
- molecule: "O=C(Nc1ccc2c(c1)OCCO2)c1cnn2c1NC(=C1CC1)C=C2C(F)F [NCGC00182167-01]"
  group-label: "F"
- molecule: "C=C1C=C(C(F)F)n2ncc(C(=O)Nc3cccc(CC)c3)c2N1 [NCGC00182142-01]"
  group-label: "F"
- molecule: "O=C(NC1CCCC1)c1cnn2c1NC(=C1CC1)C=C2C(F)F [NCGC00182170-01]"
  group-label: "F"
- molecule: "C=C1C=C(C(F)F)n2ncc(C(=O)NCc3ccccc3C(F)(F)F)c2N1 [NCGC00182161-01]"
  group-label: "F"
- molecule: "Cc1cc(C)n2ncc(C(=O)Nc3cc(F)cc(F)c3)c2n1 [NCGC00187967-01]"
  group-label: "T"
- molecule: "COc1ccc(NC(=O)c2cnn3c(C)cc(C)nc23)cc1F [NCGC00188776-01]"
  group-label: "T"
- molecule: "C=C1C=C(C(F)F)n2ncc(C(=O)Nc3ccc(N(CC)CC)cc3)c2N1 [NCGC00182154-01]"
  group-label: "F"
- molecule: "CC(=O)c1ccc(NC(=O)c2cnn3c(C)cc(C)nc23)cc1 [NCGC00188784-01]"
  group-label: "F"
- molecule: "Cc1cc(C)n2ncc(C(=O)Nc3ccc4c(c3)OCO4)c2n1 [NCGC00054856-02]"
  group-label: "T"
- molecule: "Cc1cc(C)n2ncc(C(=O)NC3CCC(C(C)(C)C)CC3)c2n1 (centres unmarked) [NCGC00188755-01]"
  group-label: "T"
- molecule: "O=C(Nc1cc(F)ccc1F)c1cnn2c1NC(=C1CC1)C=C2C(F)F [NCGC00182172-01]"
  group-label: "T"
- molecule: "Cc1cc(C)n2ncc(C(=O)Nc3ccc(F)cc3)c2n1 [NCGC00188766-01]"
  group-label: "T"
- molecule: "C=C1C=C(C(F)F)n2ncc(C(=O)N3CCN(c4ccccc4)CC3)c2N1 [NCGC00182152-01]"
  group-label: "F"
- molecule: "Cc1cc(C)n2ncc(C(=O)Nc3ccccc3Sc3ccccc3)c2n1 [NCGC00229712-01]"
  group-label: "F"
- molecule: "Cc1ccc(NC(=O)c2cnn3c2NC(=C2CC2)C=C3C(F)F)cc1C [NCGC00182133-01]"
  group-label: "T"
- molecule: "O=C(Nc1cnn(Cc2ccc(F)cc2)c1)c1cnn2c(C(F)F)cc(-c3ccccc3)nc12 [MLS000662187-01]"
  group-label: "T"
- molecule: "COc1ccc(NC(=O)c2cnn3c(C)cc(C)nc23)cc1 [NCGC00188768-01]"
  group-label: "F"
- molecule: "Cc1cc(-c2ccccc2)nc2c(C(=O)Nc3ccc(Cl)c(Cl)c3)cnn12 [NCGC00229715-01]"
  group-label: "T"
- molecule: "Cc1cc(C)n2ncc(C(=O)Nc3ccc(C#N)cc3)c2n1 [NCGC00188769-01]"
  group-label: "F"
- molecule: "CCc1ccc(NC(=O)c2cnn3c(-c4ccccc4)cc(C)nc23)cc1 [NCGC00229717-01]"
  group-label: "F"
